Target: T1, human PVRIG-mFc protein (Acro, PVG-H5253) (human, UniProt Q6DKI7 41-171, limits assumed)
T1 construct: bought protein
T1 sequence (looked up): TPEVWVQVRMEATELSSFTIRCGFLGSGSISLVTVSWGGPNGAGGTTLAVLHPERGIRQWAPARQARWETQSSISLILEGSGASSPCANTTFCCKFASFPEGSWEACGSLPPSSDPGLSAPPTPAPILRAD
Experiment: FACS competition, PVRIG-mFc binding to CHO-K1-CD112 cells, competitor CD112 on cells
% AUC to SRF813-hIgG1 vs 80%: at or above is rule met, below is rule not met.

Answered cases to consult:
INSERT INTO measurements (binder, assigned_category) VALUES
  ('PVRIG-A60 (Fc fusion, heavy chain antibody VHH-hinge-CH2-CH3, human IgG1 constant part; not shown: human IgG1 hinge-CH2-CH3) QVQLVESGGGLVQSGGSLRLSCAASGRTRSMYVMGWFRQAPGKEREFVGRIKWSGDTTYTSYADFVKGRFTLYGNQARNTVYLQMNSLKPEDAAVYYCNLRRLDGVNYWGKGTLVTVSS', 'rule met'),
  ('PVRIG-A75 (Fc fusion, heavy chain antibody VHH-hinge-CH2-CH3, human IgG1 constant part; not shown: human IgG1 hinge-CH2-CH3) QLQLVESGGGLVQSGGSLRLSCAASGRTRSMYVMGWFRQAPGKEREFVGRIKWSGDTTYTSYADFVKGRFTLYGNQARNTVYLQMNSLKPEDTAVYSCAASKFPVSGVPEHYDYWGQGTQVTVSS', 'rule met');

Task item: Exam item: decide whether the reported % AUC to SRF813-hIgG1 for PVRIG-A30 (Fc fusion, heavy chain antibody VHH-hinge-CH2-CH3, human IgG1 constant part; not shown: human IgG1 hinge-CH2-CH3) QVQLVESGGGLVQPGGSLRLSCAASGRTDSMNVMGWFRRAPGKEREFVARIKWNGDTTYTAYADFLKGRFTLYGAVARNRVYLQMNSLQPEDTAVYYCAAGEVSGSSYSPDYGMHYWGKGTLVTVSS is at least 80%.
Reply: rule not met

Task item: Lookup PVRIG-A43 (Fc fusion, heavy chain antibody VHH-hinge-CH2-CH3, human IgG1 constant part; not shown: human IgG1 hinge-CH2-CH3) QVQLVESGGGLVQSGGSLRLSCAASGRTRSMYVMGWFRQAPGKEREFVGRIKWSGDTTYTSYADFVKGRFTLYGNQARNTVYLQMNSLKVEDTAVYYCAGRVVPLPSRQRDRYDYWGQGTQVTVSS
Reply: rule met
